Target: UMP-CMP kinase (Homo sapiens); note: in the data inactive means no Kd found up to 30 µM
Sequence (P30085 whole entry): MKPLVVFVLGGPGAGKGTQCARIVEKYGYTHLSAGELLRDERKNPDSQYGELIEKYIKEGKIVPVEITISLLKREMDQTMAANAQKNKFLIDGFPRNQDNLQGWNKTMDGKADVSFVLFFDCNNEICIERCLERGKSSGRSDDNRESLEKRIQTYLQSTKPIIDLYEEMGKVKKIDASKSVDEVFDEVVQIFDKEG
Active and inactive are the calls of the source.
Pick one and only one: active, inactive

Exam item: Dear all, I need the recorded test outcome for C#Cc1cccc(Nc2ncnc3cc4c(cc23)OCCOCCOCCO4)c1 , thank you.
Marked response: inactive

Exam item: Same read-out for CCc1cc2c(cc1N1CCC(N3CCOCC3)CC1)C(C)(C)c1[nH]c3cc(C#N)ccc3c1C2=O ?
Marked response: inactive

Exam item: Same read-out for NC[C@@](O)(c1ccc(Cl)cc1)c1ccc(-c2cn[nH]c2)cc1 ?
Marked response: inactive

Exam item: Same read-out for COc1cc2c(Oc3ccc4[nH]c(C)cc4c3F)ncnc2cc1OCCCN1CCCC1 ?
Marked response: inactive

Exam item: Same read-out for COc1cccc2cc(-c3nc([C@H]4CC[C@H](C(=O)O)CC4)n4ncnc(N)c34)[nH]c12 ?
Marked response: inactive

Exam item: Same read-out for CC1(C)CNc2cc(NC(=O)c3cccnc3NCc3ccncc3)ccc21 ?
Marked response: inactive

Exam item: Same read-out for C=CCn1c(=O)c2cnc(Nc3ccc(N4CCN(C)CC4)cc3)nc2n1-c1cccc(C(C)(C)O)n1 ?
Marked response: inactive

Exam item: Same read-out for Cn1c(=O)n(-c2ccc(C(C)(C)C#N)cc2)c2c3cc(-c4cnc5ccccc5c4)ccc3ncc21 ?
Marked response: inactive

Exam item: Same read-out for COc1cc2ncnc(Nc3ccc(O)cc3)c2cc1OC ?
Marked response: inactive

Exam item: Same read-out for C=CC(=O)Nc1cc(Nc2nccc(-c3cn(C)c4ccccc34)n2)c(OC)cc1N(C)CCN(C)C ?
Marked response: inactive

###

Target: Tyrosine-protein kinase ABL2 (Homo sapiens, UniProt P42684); note: in the data inactive means no Kd found up to 30 µM
Sequence (P42684 whole entry): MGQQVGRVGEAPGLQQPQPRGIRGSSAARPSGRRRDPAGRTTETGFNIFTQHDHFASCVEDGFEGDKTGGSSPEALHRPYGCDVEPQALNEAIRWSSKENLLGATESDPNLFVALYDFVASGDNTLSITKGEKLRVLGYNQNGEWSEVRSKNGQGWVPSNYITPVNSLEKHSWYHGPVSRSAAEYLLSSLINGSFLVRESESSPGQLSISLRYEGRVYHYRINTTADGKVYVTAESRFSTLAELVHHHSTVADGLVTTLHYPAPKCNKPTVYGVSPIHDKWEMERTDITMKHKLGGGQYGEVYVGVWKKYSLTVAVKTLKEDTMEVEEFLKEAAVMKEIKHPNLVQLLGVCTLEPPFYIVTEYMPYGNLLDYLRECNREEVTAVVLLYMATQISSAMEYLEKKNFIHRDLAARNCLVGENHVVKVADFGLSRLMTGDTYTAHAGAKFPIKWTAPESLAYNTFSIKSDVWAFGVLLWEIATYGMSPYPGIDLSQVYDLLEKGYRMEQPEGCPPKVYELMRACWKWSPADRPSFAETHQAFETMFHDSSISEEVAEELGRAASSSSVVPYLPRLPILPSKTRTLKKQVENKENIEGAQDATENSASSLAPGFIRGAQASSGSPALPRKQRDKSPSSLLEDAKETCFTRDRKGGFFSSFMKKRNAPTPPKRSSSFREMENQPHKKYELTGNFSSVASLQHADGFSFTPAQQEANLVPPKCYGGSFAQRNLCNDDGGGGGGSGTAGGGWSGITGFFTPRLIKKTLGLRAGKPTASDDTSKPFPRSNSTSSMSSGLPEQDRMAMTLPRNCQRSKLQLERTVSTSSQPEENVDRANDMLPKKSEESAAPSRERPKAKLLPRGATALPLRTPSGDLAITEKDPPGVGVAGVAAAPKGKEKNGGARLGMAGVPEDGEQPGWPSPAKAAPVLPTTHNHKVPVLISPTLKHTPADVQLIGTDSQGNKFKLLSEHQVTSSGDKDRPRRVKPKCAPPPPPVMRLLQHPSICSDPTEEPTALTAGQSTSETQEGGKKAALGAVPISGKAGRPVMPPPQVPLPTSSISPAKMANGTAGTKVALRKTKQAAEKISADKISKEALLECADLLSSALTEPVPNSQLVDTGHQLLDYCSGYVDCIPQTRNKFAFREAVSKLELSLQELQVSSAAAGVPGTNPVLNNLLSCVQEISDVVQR
Active and inactive are the calls of the source.
Pick one and only one: T = active, F = inactive

Answered examples (3):
CN(c1ncccc1CNc1nc(Nc2ccc3c(c2)CC(=O)N3)ncc1C(F)(F)F)S(C)(=O)=O [PF-00562271] :: F
C=CC(=O)Nc1cccc(Nc2nc(Nc3ccc(N4CCN(C(C)=O)CC4)cc3OC)ncc2C(F)(F)F)c1 [ROCILETINIB] :: F
NC(=O)c1ccc(N(C(N)=O)c2c(F)cccc2F)nc1-c1ccc(F)cc1F [VX-702] :: F

Exam item: Dear all, I need the recorded test outcome for O=C(Nc1ccc(OC(F)(F)F)cc1)c1sccc1NCc1ccnc2ccccc12 [OSI-930] , thank you.
Marked response: F

Exam item: Same read-out for O[C@H]1CC[C@H](Nc2ncc3nc(Nc4c(F)cc(F)cc4F)n([C@H]4CCOC4)c3n2)CC1 [TANZISERTIB] ?
Marked response: F

Exam item: Same read-out for c1cc(OCCN2CCCCC2)cc(-c2n[nH]c3ccc(-c4nc[nH]n4)cc23)c1 [CC-401] ?
Marked response: F

Exam item: Same read-out for Cn1cc(-c2[nH]c3cc(NC(=O)[C@H](N)C4CCCCC4)cc4c3c2C=NNC4=O)cn1 ?
Marked response: T

Exam item: Same read-out for COCCN1CCN(Cc2ccc(-c3n[nH]c4c3C(=O)c3c(NC(=O)NN5CCOCC5)cccc3-4)cc2)CC1 [RGB-286638] ?
Marked response: F

Exam item: Same read-out for CCc1cc2c(cc1N1CCC(N3CCOCC3)CC1)C(C)(C)c1[nH]c3cc(C#N)ccc3c1C2=O [ALECTINIB] ?
Marked response: F

Exam item: Same read-out for Cc1cc(Nc2nc(N[C@@H](C)c3ncc(F)cn3)ncc2Cl)n[nH]1 [AZD-1480] ?
Marked response: F

Exam item: Same read-out for COc1cccc(Nc2ncnn3ccc(CN4CC[C@@H](N)[C@H](O)C4)c23)c1 [BMS-690514] ?
Marked response: T

Exam item: Same read-out for COc1cc2ncnc(Nc3ccc(F)c(Cl)c3)c2cc1NC(=O)/C=C/CN1CCCCC1 [DACOMITINIB ANHYDROUS] ?
Marked response: F

Exam item: Same read-out for COc1ccc(-c2ccc3ncc4c(c3c2)n(-c2ccc(N3CCNCC3)c(C(F)(F)F)c2)c(=O)n4C)cn1 [BGT-226 FREE BASE] ?
Marked response: F

Exam item: Same read-out for NC[C@@](O)(c1ccc(Cl)cc1)c1ccc(-c2cn[nH]c2)cc1 [AT-13148] ?
Marked response: F

Exam item: Same read-out for Cn1c(=O)n(-c2ccc(C(C)(C)C#N)cc2)c2c3cc(-c4cnc5ccccc5c4)ccc3ncc21 [DACTOLISIB] ?
Marked response: F

Exam item: Same read-out for Cc1cc(C(=O)Nc2cc(Oc3ccc4nc(NC(=O)C5CC5)cn4n3)ccc2C)n(C)n1 [TAK-593] ?
Marked response: T

###

Biological target: Serine/threonine-protein kinase PLK4 (Homo sapiens, UniProt O00444); note: in the data inactive means no Kd found up to 30 µM
Sequence (O00444 whole entry): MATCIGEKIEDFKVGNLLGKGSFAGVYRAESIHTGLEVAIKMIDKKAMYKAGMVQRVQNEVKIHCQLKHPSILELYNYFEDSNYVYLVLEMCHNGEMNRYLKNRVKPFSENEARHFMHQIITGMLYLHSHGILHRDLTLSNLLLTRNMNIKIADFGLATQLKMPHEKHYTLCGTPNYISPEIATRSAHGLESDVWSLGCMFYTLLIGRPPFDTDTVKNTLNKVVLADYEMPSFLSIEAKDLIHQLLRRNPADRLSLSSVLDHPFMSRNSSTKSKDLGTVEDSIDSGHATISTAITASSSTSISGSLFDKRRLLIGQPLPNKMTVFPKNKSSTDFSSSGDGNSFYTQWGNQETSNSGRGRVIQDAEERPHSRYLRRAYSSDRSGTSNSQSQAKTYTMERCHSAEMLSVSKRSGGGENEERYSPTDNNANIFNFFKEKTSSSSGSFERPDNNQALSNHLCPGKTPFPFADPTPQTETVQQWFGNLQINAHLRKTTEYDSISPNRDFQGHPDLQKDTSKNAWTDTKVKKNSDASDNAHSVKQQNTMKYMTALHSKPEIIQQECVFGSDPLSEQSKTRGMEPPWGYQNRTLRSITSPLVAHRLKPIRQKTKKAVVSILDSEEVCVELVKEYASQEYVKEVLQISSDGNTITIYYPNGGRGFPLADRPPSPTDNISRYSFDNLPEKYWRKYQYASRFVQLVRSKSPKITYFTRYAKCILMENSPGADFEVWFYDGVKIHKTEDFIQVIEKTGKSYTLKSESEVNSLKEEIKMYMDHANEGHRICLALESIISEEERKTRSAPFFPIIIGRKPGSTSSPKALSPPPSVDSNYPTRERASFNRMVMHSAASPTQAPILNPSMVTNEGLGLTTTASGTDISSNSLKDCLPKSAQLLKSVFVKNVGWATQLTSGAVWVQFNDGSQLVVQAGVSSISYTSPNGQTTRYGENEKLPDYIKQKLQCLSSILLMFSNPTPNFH
The source made the active and inactive calls.
Pick one and only one: T = active, F = inactive

Answered examples (2):
C=CCN(/C=C1/C(=O)O[C@H](COC)[C@@]2(C)C1=C(O)C(=O)C1=C2[C@H](OC(C)=O)C[C@]2(C)C(=O)CC[C@@H]12)CC=C [SONOLISIB] :: F
COc1cc2ncnc3c2cc1OCCCCCN(C)Cc1ccc(Br)cc1N3 [JNJ-26483327] :: F

Exam item: Dear all, I need the recorded test outcome for Cc1cc(Nc2nc(N[C@@H](C)c3ncc(F)cn3)ncc2Cl)n[nH]1 [AZD-1480] , thank you.
Marked response: T

Exam item: Same read-out for C=CC(=O)Nc1cc(Nc2nccc(-c3cn(C)c4ccccc34)n2)c(OC)cc1N(C)CCN(C)C [OSIMERTINIB] ?
Marked response: F

Exam item: Same read-out for CN1CCN(c2nc(C3=C(c4c[nH]c5ccccc45)C(=O)NC3=O)c3ccccc3n2)CC1 [SOTRASTAURIN] ?
Marked response: F

Exam item: Same read-out for CC1(COc2ccc3c(c2)ncn3-c2ccc3cccc(N4CCC(N)CC4)c3n2)COC1 [CRENOLANIB] ?
Marked response: F

Exam item: Same read-out for CC(C)CC(=O)Nc1[nH]nc2c1CN(C(=O)C1CCN(C)CC1)C2(C)C [PHA-793887] ?
Marked response: F

Exam item: Same read-out for Cc1c(Cn2c(C)nc3c(C(=O)O)cc(N4CCOCC4)cc32)cccc1C(F)(F)F [GSK-2636771] ?
Marked response: F

Exam item: Same read-out for COc1ccc2c(OCc3nnc4ccc(-c5ccccc5)nn34)ccnc2c1 [AMG-208] ?
Marked response: F

Exam item: Same read-out for CNC(=O)c1cccc(-c2ccc3c(N4CCOC[C@@H]4C)nc(N4CCOC[C@@H]4C)nc3n2)c1 [VISTUSERTIB] ?
Marked response: F

Exam item: Same read-out for c1cc(OCCN2CCCCC2)cc(-c2n[nH]c3ccc(-c4nc[nH]n4)cc23)c1 [CC-401] ?
Marked response: F

Exam item: Same read-out for NC[C@@](O)(c1ccc(Cl)cc1)c1ccc(-c2cn[nH]c2)cc1 [AT-13148] ?
Marked response: F

Exam item: Same read-out for Cn1c(=O)n(-c2ccc(C(C)(C)C#N)cc2)c2c3cc(-c4cnc5ccccc5c4)ccc3ncc21 [DACTOLISIB] ?
Marked response: F

###

Molecular target: Serine/threonine-protein kinase TAO3 (Homo sapiens, UniProt Q9H2K8); note: in the data inactive means no Kd found up to 30 µM
Sequence (Q9H2K8 whole entry): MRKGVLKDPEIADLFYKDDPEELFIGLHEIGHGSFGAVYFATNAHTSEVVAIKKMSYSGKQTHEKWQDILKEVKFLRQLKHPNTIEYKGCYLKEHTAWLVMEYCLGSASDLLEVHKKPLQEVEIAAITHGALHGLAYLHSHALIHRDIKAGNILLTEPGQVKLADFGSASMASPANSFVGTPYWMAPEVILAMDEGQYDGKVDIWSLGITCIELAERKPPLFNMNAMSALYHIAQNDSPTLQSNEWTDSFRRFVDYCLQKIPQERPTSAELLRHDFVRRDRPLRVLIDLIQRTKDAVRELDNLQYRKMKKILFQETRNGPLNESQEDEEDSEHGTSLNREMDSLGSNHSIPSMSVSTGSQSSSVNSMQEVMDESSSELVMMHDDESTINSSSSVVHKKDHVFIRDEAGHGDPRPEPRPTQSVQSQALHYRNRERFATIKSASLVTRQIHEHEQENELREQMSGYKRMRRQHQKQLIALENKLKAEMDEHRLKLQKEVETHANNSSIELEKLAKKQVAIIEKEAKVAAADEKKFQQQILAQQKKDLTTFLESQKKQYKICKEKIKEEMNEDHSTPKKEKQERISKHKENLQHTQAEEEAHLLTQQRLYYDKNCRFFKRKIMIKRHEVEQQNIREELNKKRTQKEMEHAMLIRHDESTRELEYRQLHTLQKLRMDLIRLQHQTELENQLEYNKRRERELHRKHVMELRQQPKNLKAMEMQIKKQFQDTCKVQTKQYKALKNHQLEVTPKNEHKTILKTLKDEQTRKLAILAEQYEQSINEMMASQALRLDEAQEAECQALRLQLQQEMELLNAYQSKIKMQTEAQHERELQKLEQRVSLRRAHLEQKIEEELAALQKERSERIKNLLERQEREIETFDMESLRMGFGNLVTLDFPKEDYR
Calls of active or inactive are those of the source.
Pick one and only one: yes for active, no for inactive

Exam item: Dear all, I need the recorded test outcome for C=CCN(/C=C1/C(=O)O[C@H](COC)[C@@]2(C)C1=C(O)C(=O)C1=C2[C@H](OC(C)=O)C[C@]2(C)C(=O)CC[C@@H]12)CC=C [SONOLISIB] , thank you.
Marked response: no
